Cited source: patent US20110059093A1

This section presents binders with their documented OD 1:5 dilution of supernatant values.
target-or-system: T1, phosphorylated MCAK fragment Ile-Gln-Lys-Gln-Lys-Arg-Arg-Ser(PO3H2)-Val-Asn-Ser-Lys-Ile-Pro-Ala (SEQ ID NO:17) (human, also: Glu(biotinyl-PEG) coupled to the peptide, site not given here)
T1 construct: Fragment of human mitotic centromere-associated kinesin (KIF2C, UniProt Q99661 printed); biotinylated control peptide; also called MCAK phosphopeptide
T1 peptide: IQKQKRR[pS]VNSKIPA
assay-procedure: ELISA, single point, MCAK phosphopeptide coated
Square brackets hold non-standard residues; d marks the D form. Ends that are not written are not given here. pS = N[C@@H](COP(=O)(O)O)C(=O)O
Write the value in mE as a bare number.

Examples with their reported OD 1:5 dilution of supernatant follow.
binder	measurement
anti-Tau pS422 antibody Mab 019 (antibody, V domains shown, Rabbit monoclonal antibody, recombinantly expressed in HEK293 with rabbit kappa and gamma constant regions) VH: QSVEESGGRLVTPGTPLTLTCTVSGIDLSSYTMNWVRQAPGKGLDWIGFINSGGYTSYASWTRGRFTISKTSTTVDLRITSPTTEDTATYFCARYGGGSGFDLWGPGTLVTVSS VL: QVLTQTASSVSAAVGGTVTINCQSSQSVYNNRLAWYQQKPGQPPKLLIYKASTLASGVPSRFKGSGSGTQFTLTISDLECDDAATYYCAGGYINIFAFGGGTEVVVK	0.023
anti-Tau pS422 antibody Mab 005 (antibody, V domains shown, Rabbit monoclonal antibody, recombinantly expressed in HEK293 with rabbit kappa and gamma constant regions) VH: QSVEESGGRLVTPGTPLTLTCTVSGLSLSSNAINWVRQAPGKGLEWIGYISTSGNTYYASWAKGRFTISKTSTTVDLKITSPTTEDTATYFCGRGDLWGPGTLVTVSS VL: QVLTQTASPVSAAVGSTVTINCQASQSVYKNNYLAWFQQKPGQPPKRLIYSASTLASGVSSRFKGSGSGTQFTLTISDVQCDDAATYYCLGSCDSSSNNCVAFGGGTEVVVK	0.067

Next item in the queue.
# return recorded OD 1:5 dilution of supernatant for input anti-Tau pS422 antibody Mab 086 (antibody, V domains shown, Rabbit monoclonal antibody, recombinantly expressed in HEK293 with rabbit kappa and gamma constant regions) VH: QSVEESGGRLVTPGTPLTLTCTVSGFSLSSNAINWVRQAPGKGLEWIGYIAVSGNTYYASWAKGRFTISKASTTVDLKMTSPTAEDTGTYFCGKSNIWGPGTLVTVSL VL: QVLTQTTSPVSAAVGSTVTISCQSSQSVRTNKLAWFQQKPGQPPKRLIYSASTLDFGVPSRFSASGSGTQFTLTISDVQCDDAATYYCLGYFDCSIADCVAFGGGTEVVVK 0.104
